So I've got a bunch of compounds here, and I need their melting point values.

For each of the items listed, what is its melting point?
1. [N-]=[N+]=N[C@]1(CO)O[C@@H](n2ccc(NC(=O)c3ccccc3)nc2=O)[C@H](O)[C@@H]1O
2. Cl.[N-]=[N+]=N[C@]1(COC(=O)c2ccccc2)O[C@H](n2ccc(N)nc2=O)[C@H](O)[C@@H]1O
3. CCC(=O)OC[C@@]1(N=[N+]=[N-])O[C@@H](n2ccc(N)nc2=O)[C@H](OC(=O)CC)[C@@H]1OC(=O)CC

Reply:
1: 108.1 to 118.2 °C; 2: 163 to 166.5 °C; 3: 75.9 to 79.9 °C

---

Measurement kind: melting point

[
  {
    "Item smiles": "CC(C)(C)C(=O)OC[C@]1(N=[N+]=[N-])O[C@@H](n2ccc(N)nc2=O)[C@@H](OC(=O)C(C)(C)C)[C@H]1OC(=O)C(C)(C)C.Cl",
    "Value measured": "136.2 to 140 °C"
  },
  {
    "Item smiles": "CCCCCCOC(=O)OC[C@@]1(N=[N+]=[N-])O[C@H](n2ccc(N)nc2=O)[C@H](O)[C@@H]1O.O=C(O)C(F)(F)F",
    "Value measured": "71 to 103.9 °C"
  },
  {
    "Item smiles": "CC(C)(C)C(=O)Nc1ccn([C@@H]2O[C@@](CO)(N=[N+]=[N-])[C@@H](O)[C@H]2O)c(=O)n1",
    "Value measured": "108 to 114 °C"
  },
  {
    "Item smiles": "CC(C)(C)C(=O)Nc1ccn([C@@H]2O[C@@](COC(=O)C(C)(C)C)(N=[N+]=[N-])[C@@H](OC(=O)C(C)(C)C)[C@H]2OC(=O)C(C)(C)C)c(=O)n1",
    "Value measured": "67.4 to 80 °C"
  },
  {
    "Item smiles": "CCCCC(=O)O[C@H]1[C@@H](n2ccc(N)nc2=O)O[C@@](CO)(N=[N+]=[N-])[C@H]1OC(=O)CCCC.Cl",
    "Value measured": "124.3 to 128.4 °C"
  }
]

For each of the items listed, what is its melting point?
1. CCC(=O)OC[C@@]1(N=[N+]=[N-])O[C@H](n2ccc(N)nc2=O)[C@H](OC(=O)CC)[C@@H]1OC(=O)CC.Cl
2. CCCCCCOC(=O)Nc1ccn([C@H]2O[C@@](CO)(N=[N+]=[N-])[C@@H](O)[C@H]2O)c(=O)n1

Reply:
["72 to 75.2 °C", "134.4 to 136 °C"]

---

So I've got a bunch of molecules here, and I need their melting point values.

// solved cases for melting point follow
[
  {
    "Item smiles": "CCCCCCCCNC(=O)OC[C@@]1(N=[N+]=[N-])O[C@H](n2ccc(N)nc2=O)[C@H](O)[C@@H]1O.Cl",
    "melting point": "164.9 to 168.5 °C"
  },
  {
    "Item smiles": "CCC(=O)OC[C@@]1(N=[N+]=[N-])O[C@H](n2ccc(N)nc2=O)[C@H](OC(=O)CC)[C@@H]1OC(=O)CC.CS(=O)(=O)O",
    "melting point": "149 to 153 °C"
  }
]

Now for the molecule whose melting point we want.
Query: melting point; subject: `CC(C)C(=O)O[C@H]1[C@@H](n2ccc(N)nc2=O)O[C@@](CO)(N=[N+]=[N-])[C@H]1OC(=O)C(C)C.Cl`
Reply: 191.1 to 191.9 °C

---

So I've got a bunch of compounds here, and I need their melting point values.

For each of the items listed, what is its melting point?
1. CCCC(=O)OC[C@@]1(N=[N+]=[N-])O[C@H](n2ccc(N)nc2=O)[C@H](OC(=O)CCC)[C@@H]1OC(=O)CCC.Cl
2. COC(=O)Nc1ccn([C@H]2O[C@@](CO)(N=[N+]=[N-])[C@@H](O)[C@H]2O)c(=O)n1
3. CC(=O)Nc1ccn([C@@H]2O[C@@](CO)(N=[N+]=[N-])[C@@H](O)[C@H]2O)c(=O)n1
4. CCCCC(=O)OC[C@@]1(N=[N+]=[N-])O[C@H](n2ccc(N)nc2=O)[C@H](OC(=O)CCCC)[C@@H]1OC(=O)CCCC.Cl
5. CCCCCCCOC(=O)OC[C@@]1(N=[N+]=[N-])O[C@H](n2ccc(N)nc2=O)[C@H](O)[C@@H]1O.O=C(O)C(F)(F)F

Reply:
1. 167.5 to 170.6 °C
2. 141.1 to 141.8 °C
3. 94 to 96.8 °C
4. 72.9 to 74.7 °C
5. 90.9 to 94.6 °C

For each of the items listed, what is its melting point?
1. Cc1ccc(C(=O)OC[C@@]2(N=[N+]=[N-])O[C@H](n3ccc(N)nc3=O)[C@H](O)[C@@H]2O)cc1.Cl
2. CCCCCCCCOC(=O)OC[C@@]1(N=[N+]=[N-])O[C@H](n2ccc(N)nc2=O)[C@H](O)[C@@H]1O.O=C(O)C(F)(F)F
3. CCCCCCCCCC(=O)OC[C@@]1(N=[N+]=[N-])O[C@H](n2ccc(N)nc2=O)[C@H](O)[C@@H]1O.Cl
4. CCCCOC(=O)Nc1ccn([C@@H]2O[C@@](CO)(N=[N+]=[N-])[C@@H](O)[C@H]2O)c(=O)n1

Reply:
["187 to 189 °C", "70.5 to 81 °C", "180.6 to 181.2 °C", "86.5 to 94 °C"]

---

So I've got a bunch of compounds here, and I need their melting point values.

[
  {
    "Compound": "CCCCCCCCCCCCC(=O)OC[C@]1(N=[N+]=[N-])OC(n2ccc(N)nc2=O)[C@H](O)[C@@H]1O.Cl (stereo partly shown)",
    "Value measured": "178.6 to 179.4 °C"
  }
]

For each of the items listed, what is its melting point?
1. CCCCCC(=O)O[C@H]1[C@@H](n2ccc(N)nc2=O)O[C@@](CO)(N=[N+]=[N-])[C@H]1OC(=O)CCCCC.CS(=O)(=O)O
2. CCCCCCCCCOC(=O)OC[C@@]1(N=[N+]=[N-])O[C@H](n2ccc(N)nc2=O)[C@H](O)[C@@H]1O.Cl

Reply:
1. 127.3 to 128.6 °C
2. 174.7 to 176.1 °C

---

So I've got a bunch of compounds here, and I need their melting point values.

[
  {
    "Item smiles": "CC(=O)Nc1ccn([C@@H]2O[C@@](COC(C)=O)(N=[N+]=[N-])[C@@H](OC(C)=O)[C@H]2OC(C)=O)c(=O)n1",
    "melting point": "77 to 80.1 °C"
  },
  {
    "Item smiles": "CCCCCCCCCCCC(=O)OC[C@@]1(N=[N+]=[N-])O[C@H](n2ccc(N)nc2=O)[C@H](O)[C@@H]1O.Cl",
    "melting point": "154 to 155 °C"
  },
  {
    "Item smiles": "CCCC(=O)O[C@H]1[C@@H](n2ccc(N)nc2=O)O[C@@](CO)(N=[N+]=[N-])[C@H]1OC(=O)CCC.O=C(O)C(F)(F)F",
    "melting point": "91 to 94.9 °C"
  }
]

Query: melting point; subject: `CCCCC(=O)OC[C@@]1(N=[N+]=[N-])O[C@H](n2ccc(N)nc2=O)[C@H](O)[C@@H]1O.Cl`
Reply: 62.1 to 87.7 °C

---

So I've got a bunch of compounds here, and I need their melting point values.

// solved cases for melting point follow
[
  {
    "Item smiles": "CCCCCCCCCCOC(=O)OC[C@@]1(N=[N+]=[N-])O[C@H](n2ccc(N)nc2=O)[C@H](O)[C@@H]1O.O=C(O)C(F)(F)F",
    "melting point": "75 to 77.7 °C"
  },
  {
    "Item smiles": "CC(C)(C)OC(=O)Nc1ccn([C@@H]2O[C@@](CO)(N=[N+]=[N-])[C@@H](O)[C@H]2O)c(=O)n1",
    "melting point": "80 to 83.5 °C"
  },
  {
    "Item smiles": "Cl.[N-]=[N+]=N[C@]1(COC(=O)c2ccccc2)O[C@H](n2ccc(N)nc2=O)[C@H](OC(=O)c2ccccc2)[C@@H]1OC(=O)c1ccccc1",
    "melting point": "208.9 to 210.3 °C"
  },
  {
    "Item smiles": "CC(C)CC(=O)OC[C@@]1(N=[N+]=[N-])O[C@H](n2ccc(N)nc2=O)[C@H](OC(=O)CC(C)C)[C@@H]1OC(=O)CC(C)C.Cl",
    "melting point": "142 to 142.8 °C"
  }
]

Now for the compound whose melting point we want.
Query: melting point; subject: `CCC(=O)O[C@H]1[C@@H](n2ccc(N)nc2=O)O[C@@](CO)(N=[N+]=[N-])[C@H]1OC(=O)CC.Cl`
Reply: 194.6 to 198.2 °C

All figures here come from patent US6846810B2.
